Values were extracted from ChEMBL document CHEMBL1201862.

# Test system: UO-31
# test: NCI tumour cell line growth inhibition, 48 h
Active and inactive are the calls of the source. Rule as the data show it: active = GI50 up to about 1.1 µM and inactive = higher.

{"compound": "COc1ccc(OC)c2cc(Cc3ccc(N(C)C)cc3)c(=O)c(Cc3ccc(N(C)C)cc3)cc12", "GI50": "> 100 µM (inactive)"}
{"compound": "CC(=O)CC(N)=O", "GI50": "> 100 µM (inactive)"}
{"compound": "c1ccc2c(c1)Sc1ccccc1N2CC1CN2CCC1CC2 (stereo unspecified)", "GI50": "7.06 µM (inactive)"}
{"compound": "COc1ccc(NC(=S)Nc2cc(C)ccn2)cc1", "GI50": "> 100 µM (inactive)"}
{"compound": "CCOC(=O)/C(O)=C1\\C(=O)N(C)C(=O)C1c1ccc(OC)c(OC)c1 (stereo unspecified)", "GI50": "> 100 µM (inactive)"}
{"compound": "CCOC(=O)Cc1nnc2c(-c3ccccc3)nc3ccccc3n12", "GI50": "71 µM (inactive)"}

---

# System: SF-539
# test: NCI tumour cell line growth inhibition, 48 h
Active and inactive are the calls of the source. Rule as the data show it: active = GI50 up to about 1.1 µM and inactive = higher.
Catalogue of compounds with associated GI50

{"compound": "CN1C(=O)C(c2c[nH]c3ccccc23)N(C)C(=O)C1c1c[nH]c2ccccc12 (stereo not given)", "GI50": "86.5 µM (inactive)"}
{"compound": "CNCCCCN(C)/[N+]([O-])=N\\O", "GI50": "> 100 µM (inactive)"}
{"compound": "CCOC(=O)CN1CCNCCN(CC(=O)OCC)CCNCC1", "GI50": "> 100 µM (inactive)"}
{"compound": "CCOC(=O)c1nc2ccc(C(F)(F)F)cc2nc1Oc1cc(OC)cc(OC)c1", "GI50": "57.1 µM (inactive)"}
{"compound": "CC1=NN(c2nc(N)nc(COc3ccc(N)cc3)n2)C(C)(C)C1", "GI50": "> 100 µM (inactive)"}
{"compound": "O=C(O)c1ccc2c(c1C(=O)O)C(=O)OC2(c1ccc(O)cc1)c1ccc(O)cc1", "GI50": "> 100 µM (inactive)"}
{"compound": "CC(=O)OC1(C#N)CC2OC1C1C2N1C(=O)OC(C)(C)C (stereo not given)", "GI50": "> 100 µM (inactive)"}
{"compound": "O=C1CCC2(c3ccc(Cl)cc3)Nc3ncccc3N12 (stereo not given)", "GI50": "> 100 µM (inactive)"}
{"compound": "N#CCOc1cccc(C2(N3CC=CCC3)CCCCC2)c1", "GI50": "> 100 µM (inactive)"}
{"compound": "C#Cc1cc(CN(CC(=O)OC(C)(C)C)CC(=O)OC(C)(C)C)nc(CN(CC(=O)OC(C)(C)C)CC(=O)OC(C)(C)C)c1", "GI50": "15.2 µM (inactive)"}

---

# Tested on: RXF 393
# test: NCI tumour cell line growth inhibition, 48 h
Activity calls are given as the source filed them. Cut-off read from the data, not from the text of the source: active = GI50 up to about 1.1 µM and inactive = higher.

{"compound": "CC1=CC(C2/C(=N/O)C=C(C)CC2(C)C)C(O)C(C)(C)C1 (stereo unspecified)", "target of assay": "RXF 393", "GI50": "15.3 µM (inactive)"}
{"compound": "COc1ccccc1/C=C1\\CCC(CCN2CCOCC2)C1=O (stereo unspecified)", "target of assay": "RXF 393", "GI50": "59.8 µM (inactive)"}
{"compound": "N#Cc1ccccc1-c1nc2c3c(c(N)ccc3n1)C(=O)c1ccccc1-2", "target of assay": "RXF 393", "GI50": "18 µM (inactive)"}
{"compound": "CC(=O)Oc1ccc2c(c1)[nH]c1c3ccc(OC(C)=O)cc3oc(=O)c21", "target of assay": "RXF 393", "GI50": "26.7 µM (inactive)"}
{"compound": "C/C=C/C1(C)/C(=N\\O)C(C)(CCC)C(=O)N1O (stereo unspecified)", "target of assay": "RXF 393", "GI50": "> 100 µM (inactive)"}
{"compound": "Cc1cc(C)c2c(SCc3ccc(Cl)cc3Cl)nc(N)nc2n1", "target of assay": "RXF 393", "GI50": "> 100 µM (inactive)"}
